System: Nematode J2
Assay: Plant pathogenic nematode inhibition test by dipping: second-stage juveniles
Assay type: in vivo
Conditions: in vivo
observable: LC50 (µg/mL)

>  <molecule>
COc1cccc(C2OC(=O)CC2C(=O)OCCC(F)=C(F)F)c1 (centres unmarked)

>  <readout_unit>
µg/mL

>  <recorded_number>
13.67

$$$$
>  <molecule>
O=C1CC(C(=O)OCCC(F)=C(F)F)C(c2ccc([N+](=O)[O-])cc2)O1 (centres unmarked)

>  <readout_unit>
µg/mL

>  <recorded_number>
12.18

$$$$
>  <molecule>
O=C1CC(C(=O)OCCC(F)=C(F)F)C(c2c(Cl)cccc2Cl)O1 (centres unmarked)

>  <readout_unit>
µg/mL

>  <recorded_number>
14.95

$$$$
>  <molecule>
Cc1ccccc1C1OC(=O)CC1C(=O)OCCC=C(F)F (centres unmarked)

>  <readout_unit>
µg/mL

>  <recorded_number>
10.14

$$$$
>  <molecule>
O=C1CC(C(=O)OCCC(F)=C(F)F)C(c2cc(C(F)(F)F)cc(C(F)(F)F)c2)O1 (centres unmarked)

>  <readout_unit>
µg/mL

>  <recorded_number>
13.27

$$$$

FYI, the data here is from patent US10111428B2.
